# System: SNB-19
# procedureDetails: NCI tumour cell line growth inhibition, 48 h
Calls of active or inactive are those of the source. Rule as the data show it: active = GI50 up to about 1.1 µM and inactive = higher. Square brackets hold non-standard residues; d marks the D form. Peptide text beside a SMILES is read from it. * marks the point of attachment. Boc = CC(C)(C)OC(=O)*; Lac = C[CH](O)C(=O)O; OBn = c1ccc(CO*)cc1
Labels: class 1 for active, class 0 for inactive

CC(OC(=O)C(Cc1ccccc1)NC(=O)C(Cc1ccccc1)NC(=O)OC(C)(C)C)C(=O)OCc1ccccc1 (stereo not drawn) (Boc-Phe-Phe-[Lac]-OBn; configuration not given here): class 0
Cc1cc(=O)c2c([nH]1)NS(=O)(=O)NC2=O: class 0
COc1ccc2[nH]cc(CCNC(=O)[C@](O)(Cc3cn(C)c4ccccc34)[C@@]3(O)OCC(O)C3O)c2c1 (some centres undefined): class 0
COC(=O)C(F)C(Br)C(=O)OC (centres undefined): class 0
O=C(/C=C\c1ccccc1)Oc1ccc(/C=C2\CCCCC2=O)cc1: class 0
COC(=O)C1=C(O)C(C(=O)OC)[C@]2(O)[C@H](C(=O)OC)[C@H]1C[C@@H](c1ccc(OC)c(OC)c1)[C@H]2C(=O)OC (some centres undefined): class 0
Cc1cccc(/C=N/NC(=S)N2CCCCCC2)n1: class 1
Cn1cc2c(=O)n3ncn(-c4ccc(Br)cc4)c3nc2n1: class 0
Cc1cn(C2CC(OC(=O)c3ccc(Cl)cc3)C(COC(=O)c3ccc(Cl)cc3)O2)c(=O)[nH]c1=O (centres undefined): class 0
